Biological target: T1, human GITR (human, UniProt Q9Y5U5 26-241)
T1 sequence: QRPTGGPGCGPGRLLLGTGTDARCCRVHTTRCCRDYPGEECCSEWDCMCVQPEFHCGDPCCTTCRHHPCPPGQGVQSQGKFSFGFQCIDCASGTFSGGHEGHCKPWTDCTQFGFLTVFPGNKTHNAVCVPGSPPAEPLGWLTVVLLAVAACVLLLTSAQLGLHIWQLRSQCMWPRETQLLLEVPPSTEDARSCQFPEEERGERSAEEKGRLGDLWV
Assay: cell-based or functional assay
# Proliferation (Fold over CD3) per record follows
Numbers only here, please. The scale is fold over CD3.

{"columns": ["binder", "reportedMeasurement"],
 "data": [
  ["9H6v3 (antibody, human IgG1, kappa, V domains shown, Engineered variant; also called Ab46; SS-13806) VH: QVQLVESGGGVVQPGRSLRLSCVASGFTFSSYGMHWIRQAPGKGLEWVAVIWYEGSNKYYAESVKGRFTISRDNSKNTLYLQMNSLRAEDTAVYYCARGGRLGKDYYSGMDVWGQGTTVTVSS VL: DIQMTQSPSSLSASVGDRVTITCRASQGIRNDLGWYQQKPGKAPKRLIYATSSLQSGVPSRFSGSGSGTEFTLTISSLQPEDFATYYCLQHNTYPWTFGQGTKVEIKR", 3.7]
]}

Kindly review the next binder as well.
Lookup: # query: Proliferation (Fold over CD3) of entry 5H7 (antibody, human IgG1, kappa, V domains shown, Parental fully human antibody; also called Ab17; SS-10943) VH: QVQLQESGPGLVKPSQTLSLTCTVSGGSISSGGYFWSWIRQHPGKGLEWIGYIYYSGTTYYNPSLKSRVTISIDTSKNHFSLKLSSVTAADTAVYYCARDLFYYDSSGPRGFDPWGQGTLVTVSS VL: EIVLTQSPGTLSLSPGERATLSCRASQTVSSNYLAWYQQKPGQAPRLLIYGSSTRATGIPDRFSGSGSGTDFTLTISRLEPEDFAVYYCQQYDSSPWTFGQGTKVEIKR
Found: 3.4
